Values from patent US20140323721A1

tested on: MDA-MB-361; experiment: MDA-MB-361 proliferation; assay type: cell-based; details: Homo sapiens; in vitro IC50, MDA-MB-361 cells
measured.attribute: IC50

Here's what some known entries look like.
# compound.string, target.system, data.value
data = [
    ("Nc1nc2cc(-c3ccc4ncc(N5CCC(O)CC5)nc4n3)ccc2o1", "MDA-MB-361", "< 1 µM"),
    ("C[C@@H]1CN(C2CN(c3cnc4ccc(-c5ccc6oc(N)nc6c5)nc4n3)C2)CCN1C", "MDA-MB-361", "< 10 µM"),
    ("C[C@@H]1CN(C2CN(c3cnc4ccc(-c5ccc6oc(N)nc6c5)nc4c3)C2)CCN1C", "MDA-MB-361", "< 1 µM"),
    ("Nc1nc2cc(-c3ccc4ncc(N5CC(N6CCOCC6)C5)cc4n3)ccc2o1", "MDA-MB-361", "< 10 µM"),
    ("CN1CCN(C2CN(c3cnc4ccc(-c5ccc6oc(N)nc6c5)nc4n3)C2)CC1", "MDA-MB-361", "< 10 µM"),
    ("CC(C)(N)C(=O)N1CCN(c2cnc3ccc(-c4ccc5oc(N)nc5c4)nc3n2)CC1", "MDA-MB-361", "< 10 µM"),
]

For Nc1nc2cc(-c3ccc4ncc(N5CCC(O)CC5)cc4n3)ccc2o1 , what is its reported IC50?
< 10 µM

For Nc1nc2cc(-c3ccc4ncc(N5CC(N6CCN(C7CC7)CC6)C5)nc4n3)ccc2o1 , what is its reported IC50?
< 10 µM

====

tested on: MDA-MB-361; assay: MDA-MB-361 proliferation; format: cell-based; conditions: Homo sapiens; in vitro IC50, MDA-MB-361 cells
measured.attribute: IC50

Here's what some known entries look like.
# compound.string, target.system, IC50
records = [
    ("C[C@H]1COCCN1C1CN(c2cnc3ccc(-c4ccc5oc(N)nc5c4)nc3c2)C1", "MDA-MB-361", "< 10000 nM"),
    ("CN1CCN(c2cnc3ccc(-c4ccc5oc(N)nc5c4)nc3c2)CC1", "MDA-MB-361", "< 10000 nM"),
    ("CN1CCN(C2CN(c3cnc4ccc(-c5ccc6oc(N)nc6c5)nc4c3)C2)CC1=O", "MDA-MB-361", "< 1000 nM"),
]

# query: IC50 | item Nc1nc2cc(-c3ccc4ncc(N5CC6CCC(C5)O6)cc4n3)ccc2o1 | system: MDA-MB-361
< 1000 nM

# query: IC50 | item C[C@H]1CN(C2CN(c3cnc4ccc(-c5ccc6oc(N)nc6c5)nc4c3)C2)CCN1C | system: MDA-MB-361
< 1000 nM

# query: IC50 | item C[C@@H]1CN(C2CN(c3cnc4ccc(-c5ccc6oc(N)nc6c5)nc4c3)C2)CCN1 | system: MDA-MB-361
< 1000 nM

====

Each item that follows carries a reported pIC50.
tested on: MDA-MB-361; test: MDA-MB-361 proliferation; format: cell-based; details: Homo sapiens; in vitro IC50, MDA-MB-361 cells
pIC50: −log10 of the molar value.

# compound.string, target.system, pIC50
data = [
    ("Nc1nc2cc(-c3ccc4ncc(N5CC6CCC(C5)O6)nc4n3)ccc2o1", "MDA-MB-361", "> 6.00"),
    ("Nc1nc2cc(-c3ccc4ncc(N5CC(N6CCN(CC7CC7)CC6)C5)nc4n3)ccc2o1", "MDA-MB-361", "> 5.00"),
    ("C[C@@H]1COCCN1c1cnc2ccc(-c3ccc4oc(N)nc4c3)nc2n1", "MDA-MB-361", "> 6.00"),
]

For C[C@H]1CN(c2cnc3ccc(-c4ccc5oc(N)nc5c4)nc3c2)CCN1 , what is its reported pIC50?
> 5.00

====

Each item that follows carries a reported IC50.
tested on: MDA-MB-361; assay: MDA-MB-361 proliferation; type: cell-based; conditions: Homo sapiens; in vitro IC50, MDA-MB-361 cells

Here's what some known entries look like.
# compound.string, target.system, IC50
data = [
    ("Nc1nc2cc(-c3ccc4ncc(N5CCOCC5)nc4n3)ccc2o1", "MDA-MB-361", "< 1 µM"),
    ("C[C@H]1CN(C2CN(c3cnc4ccc(-c5ccc6oc(N)nc6c5)nc4c3)C2)CCN1", "MDA-MB-361", "< 1 µM"),
    ("NCC(=O)N1CCN(c2cnc3ccc(-c4ccc5oc(N)nc5c4)nc3c2)CC1", "MDA-MB-361", "< 10 µM"),
    ("Nc1nc2cc(-c3ccc4ncc(N5C6CCC5COC6)nc4n3)ccc2o1", "MDA-MB-361", "< 1 µM"),
    ("Nc1nc2cc(-c3ccc4ncc(N5CCN(C(=O)C6(N)CC6)CC5)nc4n3)ccc2o1", "MDA-MB-361", "< 10 µM"),
    ("C[C@H]1COCCN1c1cnc2ccc(-c3ccc4oc(N)nc4c3)nc2n1", "MDA-MB-361", "< 1 µM"),
    ("CC(C)N1CCN(c2cnc3ccc(-c4ccc5oc(N)nc5c4)nc3n2)CC1", "MDA-MB-361", "< 10 µM"),
    ("C[C@H]1COCCN1C1CN(c2cnc3ccc(-c4ccc5oc(N)nc5c4)nc3n2)C1", "MDA-MB-361", "> 10 µM"),
    ("CC(C)N1CCN(c2cnc3ccc(-c4ccc5oc(N)nc5c4)nc3c2)CC1", "MDA-MB-361", "< 10 µM"),
    ("Nc1nc2cc(-c3ccc4ncc(N5CC(N6CCOCC6)C5)nc4n3)ccc2o1", "MDA-MB-361", "< 10 µM"),
]

For C[C@@H]1CN(c2cnc3ccc(-c4ccc5oc(N)nc5c4)nc3n2)CCN1 , what is its reported IC50?
< 10 µM

For CCOC(=O)N1CCN(c2cnc3ccc(-c4ccc5oc(N)nc5c4)nc3c2)CC1 , what is its reported IC50?
< 1 µM

For Nc1nc2cc(-c3ccc4ncc(N5CCN(C(=O)C6(N)CC6)CC5)cc4n3)ccc2o1 , what is its reported IC50?
< 1 µM
